Test system: ATXN2-luc
testProtocol: MSSR pilot screen: ATXN2-luc luciferase assay (Bright-Glo) in H2 cells, single 10 μM dose
Format: cell-based, human
reportedConditions: pilot screen
measuredQuantity: SD from mean (pilot screen) (SD)
Report as a plain number; the unit SD is understood.

Exam item: What value of SD from mean (pilot screen) has been reported for the following molecule? COc1ccc(CN2CCN(C(c3ccc(F)cc3)c3ccc(F)cc3)CC2)c(OC)c1OC [LOMERIZINE DiHCl]
Marked response: -2.782

Exam item: // same read-out, input: C[C@@H]1O[C@@H](O[C@@H]2C=C3CC[C@@H]4[C@H](CC[C@]5(C)[C@@H](c6ccc(=O)oc6)CC[C@]45O)[C@@]3(C)CC2)[C@H](O)[C@H](O)[C@H]1O
Marked response: -7.684

Exam item: Would you mind doing CC1=CC(=O)c2ccccc2C1=O as well?
Marked response: -3.434

Hello, the source for this data is paper PMC9356275, in case you need it.
